- Assayed system: T1, GLP-1R in the INS1e assay (UniProt P32301 22-463, limits assumed)
- T1 sequence (looked up): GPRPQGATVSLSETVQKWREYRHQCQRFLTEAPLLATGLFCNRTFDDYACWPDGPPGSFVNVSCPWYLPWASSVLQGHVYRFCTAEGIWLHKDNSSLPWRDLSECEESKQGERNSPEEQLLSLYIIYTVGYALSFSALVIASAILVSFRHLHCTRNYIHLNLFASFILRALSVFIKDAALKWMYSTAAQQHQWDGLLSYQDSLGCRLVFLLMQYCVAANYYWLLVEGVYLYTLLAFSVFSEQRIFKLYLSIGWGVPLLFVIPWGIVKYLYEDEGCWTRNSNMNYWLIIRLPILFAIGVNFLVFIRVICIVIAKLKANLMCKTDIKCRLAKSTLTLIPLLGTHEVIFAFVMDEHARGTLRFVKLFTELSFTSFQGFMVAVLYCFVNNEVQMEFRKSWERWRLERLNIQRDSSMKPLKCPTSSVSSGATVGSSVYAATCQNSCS
- Assay info: cell-based or functional assay
Starred links: 1 amine or outer side, 2 acyl side, 3 side chain; linkers in the order of their positions; H or OH if unused. Non-standard residues stand in square brackets, D forms with d. Groups on a side chain read outwards from the residue. Primed or numbered codes have the meaning given here. No end group written: not given here. *: point of attachment. γGlu = O=C(O)[C@H](CCC(=O)[*:2])N[*:1]; αMeF = C[C@](N)(Cc1ccccc1)C(=O)O; αMeK = C[C@](N)(CCCCN)C(=O)O; Lauroyl = CCCCCCCCCCCC(=O)*; PEG2′ = not defined here; Aib = CC(C)(N)C(=O)O
Test readout: cAMP INS1e assay EC50, Mean pM GLP-1R (pM)
Answer with a number only, understood to be in pM.

Which cAMP INS1e assay EC50, Mean pM GLP-1R value belongs to H[Aib]EGS[αMeF]TSDVSK([PEG2′-PEG2′-γGlu-Lauroyl])YLEGEAA[αMeK]K([PEG2′-PEG2′-γGlu-Lauroyl])FIAK([PEG2′-PEG2′-γGlu-Lauroyl])VVEGG-NH2 [SEQ ID NO: 462] ?
4560

This collection of values is drawn from patent US20200079833A1.
